- assay: Lipophilicity, log P of the compound
- Assay type: physicochemical
- condition: octanol/water
attributeMeasured: logP

CS(=O)(=O)c1ccc(-c2ccc([C@H](Cn3ccnc3)NC(=O)c3ccc(-c4nnc(-c5ccccc5)o4)cc3)c(Cl)c2)cc1; 4.39
O=C(N[C@@H](Cn1ccnc1)c1c(F)cc(-c2ccc(F)cc2)cc1F)c1ccc(-c2nnc(-c3ccccc3)o2)cc1; 5.6
O=C(N[C@@H](Cn1ccnc1)c1ccc(-c2ccc(F)cc2)cc1Cl)c1ccc(-c2nnc(-c3ccncc3)o2)cc1; 5.27
O=C(N[C@@H](Cn1ccnc1)c1ccc(-c2ccccc2)cc1Cl)c1ccc(-c2nnc(-c3ccccc3)o2)cc1; 5.68
O=C(N[C@@H](Cn1ccnc1)c1ccc(-c2ccc(F)cc2)cc1F)c1ccc(-c2nnc(-c3ccccc3)o2)cc1; 5.44
O=C(N[C@@H](Cn1ccnc1)c1cnc(-c2ccc(F)cc2)cc1Cl)c1ccc(-c2nnc(-c3ccccc3)o2)cc1; 4.93
O=C(N[C@@H](Cn1ccnc1)c1ccc(-c2ccc(F)cc2)cc1Cl)c1ccc(-c2nnc(-c3ccccn3)o2)cc1; 4.93

* * *

- assay: Intrinsic clearance in human liver microsomes at 1 uM preincubated for 5 mins followed by NADPH addition and measured after 45 mins by LC/MS/MS analysis
- Assay type: ADME, microsome
- condition: read-out: CLH
attributeMeasured: CLint scaled at 1 µM (mL/min/kg)

O=C(N[C@@H](Cn1ccnc1)c1ccc(-c2ccc(F)cc2)cc1F)c1ccc(-c2nnc(-c3ccccc3)o2)cc1; 29.9

(1) O=C(N[C@@H](Cn1ccnc1)c1ccc(-c2ccc(F)cc2)cc1Cl)c1ccc(-c2nnc(-c3ccccn3)o2)cc1
(2) O=C(N[C@@H](Cn1ccnc1)c1ccc(-c2ccc(F)cc2)cc1Cl)c1ccc(-c2nnc(-c3ccccc3)o2)cc1
Compare CLint scaled at 1 µM: is it lower for 1 or for 2 ? Your answer should be the label of the entry you select.
2
(2: 13.9 mL/min/kg, 1: 22.3 mL/min/kg)

* * *

- assay: Drug uptake in BALB/c mouse blood at 25 mg/kg, po via gavage measured after 4 hrs post dose by […]
- Format: ADME, organism-based
- condition: read-out: Drug uptake
attributeMeasured: concentration at 4 h (µM)

Worked examples follow.
O=C(N[C@@H](Cn1ccnc1)c1ccc(-c2ccccc2)cc1Cl)c1ccc(-c2nnc(-c3ccccc3)o2)cc1; 9
[2H]c1c([2H])c([2H])c(-c2ccc([C@H](Cn3ccnc3)NC(=O)c3ccc(-c4nnc(-c5ccccc5)o4)cc3)c(Cl)c2)c([2H])c1[2H]; 4

(A) O=C(N[C@@H](Cn1ccnc1)c1ccc(-c2ccc(F)cc2)cc1Cl)c1ccc(-c2nnc(-c3ccccn3)o2)cc1
(B) O=C(N[C@@H](Cn1ccnc1)c1ccc(-c2ccc(F)cc2)cc1Cl)c1ccc(-c2nnc(-c3ccccc3)o2)cc1
Compare concentration at 4 h: is it lower for A or for B ? Your answer should be the label of the entry you select.
A

* * *

- assay: Drug uptake in BALB/c mouse liver at 25 mg/kg, po via gavage measured after 4 hrs post dose by […]
- Type: ADME, organism-based
- condition: read-out: Drug uptake
attributeMeasured: concentration at 4 h (µM)

Worked examples follow.
O=C(N[C@@H](Cn1ccnc1)c1c(F)cc(-c2ccc(F)cc2)cc1F)c1ccc(-c2nnc(-c3ccccc3)o2)cc1; 120
O=C(N[C@@H](Cn1ccnc1)c1ccc(-c2ccccc2)cc1Cl)c1ccc(-c2nnc(-c3ccccc3)o2)cc1; 21
[2H]c1c([2H])c([2H])c(-c2ccc([C@H](Cn3ccnc3)NC(=O)c3ccc(-c4nnc(-c5ccccc5)o4)cc3)c(Cl)c2)c([2H])c1[2H]; 17
O=C(N[C@@H](Cn1ccnc1)c1ccc(Cl)cc1Cl)c1ccc(-c2nnc(-c3ccc(F)c(F)c3)o2)cc1; 38

(A) O=C(N[C@@H](Cn1ccnc1)c1ccc(-c2ccc(F)cc2)cc1Cl)c1ccc(-c2nnc(-c3ccccc3)o2)cc1
(B) O=C(N[C@@H](Cn1ccnc1)c1ccc(-c2ccc(F)cc2)cc1Cl)c1ccc(-c2nnc(-c3ccncc3)o2)cc1
Compare concentration at 4 h: is it lower for A or for B ? Your answer should be the label of the entry you select.
B
(B: 0.4 µM, A: 20 µM)
